test: Stability of the working solution (4°C for 1 month); assay type: physicochemical; conditions: 500 ng/mL

>  <compound>
O=C1C[C@@H](c2ccc(O[C@@H]3O[C@H](CO)[C@@H](O)[C@H](O)[C@H]3O)cc2)Oc2cc(O)ccc21

>  <Working solution Accuracy (%)>
86.6

$$$$
>  <compound>
COc1ccc([C@@H]2CC(=O)c3c(O)cc(O[C@@H]4O[C@H](CO[C@@H]5O[C@@H](C)[C@H](O)[C@@H](O)[C@H]5O)[C@@H](O)[C@H](O)[C@H]4O)cc3O2)cc1O

>  <Working solution Accuracy (%)>
91.0

$$$$
>  <compound>
COc1cc(/C=C/C(=O)O)cc(OC)c1O

>  <Working solution Accuracy (%)>
87.0

$$$$
>  <compound>
O=c1cc(-c2ccc(O)cc2)oc2c([C@@H]3O[C@H](CO)[C@@H](O)[C@H](O)[C@H]3O)c(O)cc(O)c12

>  <Working solution Accuracy (%)>
106.0

$$$$
>  <compound>
COC(=O)C1=CO[C@@H](O[C@@H]2O[C@H](CO)[C@@H](O)[C@H](O)[C@H]2O)[C@H]2[C@@H]1C(=O)C[C@@H]2C

>  <Working solution Accuracy (%)>
96.4

$$$$
>  <compound>
O=C(O)C=Cc1ccc(O)cc1

>  <Working solution Accuracy (%)>
92.8

$$$$
>  <compound>
CC(C)(O[C@@H]1O[C@H](CO)[C@@H](O)[C@H](O)[C@H]1O)[C@@H]1CC[C@](O)(CO)[C@H]2CC(=O)[C@@](C)(O)[C@@H]2C1 [atractyloside A]

>  <Working solution Accuracy (%)>
97.2

$$$$
>  <compound>
COc1c2c(cc3oc(CO)cc(=O)c13)O[C@H](C(C)(C)O)C2

>  <Working solution Accuracy (%)>
86.7

$$$$
>  <compound>
COc1ccc(-c2coc3cc(O[C@@H]4O[C@H](CO)[C@@H](O)[C@H](O)[C@H]4O)ccc3c2=O)cc1

>  <Working solution Accuracy (%)>
91.3

$$$$
>  <compound>
O=C(O)[C@H]1O[C@@H](Oc2cc3oc(-c4ccc(O)cc4)cc(=O)c3c(O)c2O)[C@H](O)[C@@H](O)[C@@H]1O

>  <Working solution Accuracy (%)>
100.0

$$$$
>  <compound>
CC(C)=CCC[C@](C)(O)[C@H]1CC[C@]2(C)[C@@H]1[C@H](O)C[C@@H]1[C@@]3(C)CC[C@H](O)C(C)(C)[C@@H]3[C@@H](O[C@@H]3O[C@H](CO)[C@@H](O)[C@H](O)[C@H]3O[C@@H]3O[C@H](CO)[C@@H](O)[C@H](O)[C@H]3O)C[C@]12C [ginsenoside Rf]

>  <Working solution Accuracy (%)>
102.0

$$$$
>  <compound>
C[C@]1(OC(=O)/C=C/c2ccccc2)C[C@@H](O)[C@]2(O)C=CO[C@@H](O[C@@H]3O[C@H](CO)[C@@H](O)[C@H](O)[C@H]3O)[C@@H]21 [harpagoside]

>  <Working solution Accuracy (%)>
88.5

$$$$
>  <compound>
COc1c(O[C@@H]2O[C@H](C(=O)O)[C@@H](O)[C@H](O)[C@H]2O)cc(O)c2c(=O)cc(-c3ccccc3)oc12 [wogonoside]

>  <Working solution Accuracy (%)>
113.0

$$$$
>  <compound>
O=C(O)c1ccc(O)c(O)c1

>  <Working solution Accuracy (%)>
88.9

$$$$
>  <compound>
O.Oc1cc(O)c2c(c1)O[C@H](c1ccc(O)c(O)c1)[C@@H](O)C2

>  <Working solution Accuracy (%)>
100.0

$$$$
>  <compound>
O=c1c(O[C@@H]2O[C@H](CO)[C@H](O)[C@H](O)[C@H]2O)c(-c2ccc(O)c(O)c2)oc2cc(O)cc(O)c12 [hyperoside]

>  <Working solution Accuracy (%)>
95.0

$$$$
>  <compound>
O=C(O)[C@H]1O[C@@H](Oc2cc(O)c3c(=O)cc(-c4ccc(O)cc4)oc3c2)[C@H](O)[C@@H](O)[C@@H]1O [apigenin-7-O-glucuronide]

>  <Working solution Accuracy (%)>
93.2

$$$$
>  <compound>
COc1cc(/C=C/C(=O)O)ccc1O

>  <Working solution Accuracy (%)>
96.7

$$$$
>  <compound>
O=C(/C=C/c1ccc(O)c(O)c1)O[C@H]1[C@H](O)C[C@](O)(C(=O)O)C[C@H]1O

>  <Working solution Accuracy (%)>
96.8

$$$$
>  <compound>
O=C1C[C@@H](c2ccc(O)cc2)Oc2cc(O)cc(O)c21

>  <Working solution Accuracy (%)>
98.2

$$$$
>  <compound>
C[C@@]12C[C@@]3(O)O[C@@H](O1)[C@]1(COC(=O)c4ccccc4)[C@H]3C[C@@]12O[C@@H]1O[C@H](CO)[C@@H](O)[C@H](O)[C@H]1O

>  <Working solution Accuracy (%)>
93.2

$$$$
>  <compound>
C[C@@H]1O[C@@H](Oc2c(-c3ccc(O)c(O)c3)oc3cc(O)cc(O)c3c2=O)[C@H](O)[C@H](O)[C@H]1O

>  <Working solution Accuracy (%)>
99.1

$$$$
>  <compound>
O=C(/C=C/c1ccc(O[C@@H]2O[C@H](CO)[C@@H](O)[C@H](O)[C@H]2O)cc1)c1ccc(O)cc1O

>  <Working solution Accuracy (%)>
93.3

$$$$
